These measurements were taken from paper PMC4303589.

- Assay system: SvAS (fused anthranilate synthase, SvTrpEG) (Streptomyces venezuelae)
- Sequence (O30589 1-623): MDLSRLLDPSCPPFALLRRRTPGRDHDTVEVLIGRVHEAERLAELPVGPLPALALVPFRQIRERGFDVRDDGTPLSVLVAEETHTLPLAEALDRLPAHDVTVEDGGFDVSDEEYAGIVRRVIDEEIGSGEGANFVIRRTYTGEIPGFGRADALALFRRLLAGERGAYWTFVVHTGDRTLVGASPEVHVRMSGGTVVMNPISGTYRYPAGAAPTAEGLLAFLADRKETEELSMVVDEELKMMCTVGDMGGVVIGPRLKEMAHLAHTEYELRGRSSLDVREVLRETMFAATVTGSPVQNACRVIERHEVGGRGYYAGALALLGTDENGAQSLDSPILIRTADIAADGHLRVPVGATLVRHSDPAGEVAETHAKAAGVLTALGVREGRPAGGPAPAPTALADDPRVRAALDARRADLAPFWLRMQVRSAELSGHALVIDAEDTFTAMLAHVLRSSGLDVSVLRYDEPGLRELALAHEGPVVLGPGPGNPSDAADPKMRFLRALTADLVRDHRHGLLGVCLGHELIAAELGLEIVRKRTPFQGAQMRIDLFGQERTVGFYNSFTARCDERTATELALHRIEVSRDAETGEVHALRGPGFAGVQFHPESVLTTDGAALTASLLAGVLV
pKi: −log10 of the molar value.

{"Compound": "N[C@@H](Cc1c[nH]c2ccccc12)C(=O)O [tryptophan]", "Assay system": "SvAS (fused anthranilate synthase, SvTrpEG) (Streptomyces venezuelae)", "pKi": 4.95}
